target: EGFR L858R/C797S (Homo sapiens, UniProt P00533, C797S/L858R); experiment: Biochemical EGFR kinase assay (Lance Ultra TR-FRET), double mutant L858R/C797S; settings: IC50 L858R/C797S (nM) 100 μM ATP, 100 μM ATP
Sequence (P00533 25-1210 C797S/L858R): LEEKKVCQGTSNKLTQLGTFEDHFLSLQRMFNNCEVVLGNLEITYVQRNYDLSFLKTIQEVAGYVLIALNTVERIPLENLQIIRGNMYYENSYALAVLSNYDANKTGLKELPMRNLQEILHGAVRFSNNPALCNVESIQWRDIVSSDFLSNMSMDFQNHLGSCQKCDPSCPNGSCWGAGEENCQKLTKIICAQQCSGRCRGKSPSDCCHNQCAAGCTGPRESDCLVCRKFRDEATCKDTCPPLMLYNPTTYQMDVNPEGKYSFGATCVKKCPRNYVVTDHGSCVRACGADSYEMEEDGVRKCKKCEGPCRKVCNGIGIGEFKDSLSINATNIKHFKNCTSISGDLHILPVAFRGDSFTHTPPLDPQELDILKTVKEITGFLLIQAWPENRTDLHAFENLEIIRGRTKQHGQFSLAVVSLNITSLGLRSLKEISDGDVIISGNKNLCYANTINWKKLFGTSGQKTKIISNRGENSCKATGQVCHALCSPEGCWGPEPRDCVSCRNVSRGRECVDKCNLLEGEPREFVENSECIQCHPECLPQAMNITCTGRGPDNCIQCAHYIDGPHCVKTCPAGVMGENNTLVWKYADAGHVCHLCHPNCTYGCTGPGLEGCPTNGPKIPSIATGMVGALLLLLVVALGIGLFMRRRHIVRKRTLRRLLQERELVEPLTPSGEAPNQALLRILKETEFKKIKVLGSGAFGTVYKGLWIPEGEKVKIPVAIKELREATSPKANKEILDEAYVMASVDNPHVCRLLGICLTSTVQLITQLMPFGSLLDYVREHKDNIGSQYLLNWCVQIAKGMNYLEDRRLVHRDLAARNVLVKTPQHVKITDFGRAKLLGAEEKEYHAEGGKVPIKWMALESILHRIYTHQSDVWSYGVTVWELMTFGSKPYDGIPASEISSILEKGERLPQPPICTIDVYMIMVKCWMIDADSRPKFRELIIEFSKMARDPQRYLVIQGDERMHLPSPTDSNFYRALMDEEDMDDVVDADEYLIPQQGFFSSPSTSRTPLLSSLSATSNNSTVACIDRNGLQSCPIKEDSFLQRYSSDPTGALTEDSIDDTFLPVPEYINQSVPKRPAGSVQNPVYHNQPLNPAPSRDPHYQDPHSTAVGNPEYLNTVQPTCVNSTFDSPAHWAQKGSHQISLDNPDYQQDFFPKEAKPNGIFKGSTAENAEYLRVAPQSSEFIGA
I'd appreciate it if you marked entries 1.0 when IC50 is lower than 30 nM and 0.0 when it is not.

Worked examples, 2 compounds total:
[[record]]
compound = "CN1CCN(c2nc(-c3cnc(Nc4ccnc(-c5cnn(S(=O)(=O)C6CC6)c5)n4)cc3N[C@H]3CC[C@@](C)(O)CC3)cs2)CC1"
label_value = 1.0

[[record]]
compound = "O=S(=O)(C1CC1)n1cc(-c2nccc(Nc3cc(N[C@H]4CC[C@@H](O)CC4)c(-c4cnn(C(F)F)c4)cn3)n2)cn1"
label_value = 0.0


Does the reported IC50 of CC1CC(Nc2cc(Nc3ccnc(-c4cnn(S(=O)(=O)C5CC5)c4)n3)ncc2-c2ccn(C(F)F)n2)CCC1O (centres unmarked) stay below 30 nM?
0.0

Request: Cn1ccc(-c2cnc(Nc3ccnc(-c4cnn(S(=O)(=O)C5CC5)c4)n3)cc2N[C@H]2CC[C@](O)(CO)CC2)n1
1.0

Request: CN(C)C[C@H]1CC[C@H](CNc2cc(Nc3ccnc(-c4cnn(S(=O)(=O)C5CC5)c4)n3)ncc2-c2ccn(C(F)F)n2)CC1
1.0

Request: Cn1ccc(-c2cnc(Nc3ccnc(-c4cnn(S(=O)(=O)C5CC5)c4)n3)cc2NC[C@H]2CC[C@H](O)CC2)n1
1.0

Request: O=S(=O)(C1CC1)n1cc(-c2nccc(Nc3cc(NC4CCC(O)C4)c(-c4ccn(C(F)F)n4)cn3)n2)cn1 (centres unmarked)
1.0

Request: CC1(N)CCC(Oc2cc(Nc3ccnc(-c4cnn(S(=O)(=O)C5CC5)c4)n3)ncc2-c2cnn(C(F)F)c2)CC1 (centres unmarked)
0.0
